# Test system: Escherichia coli
# test: Minimum inhibitory concentration against Escherichia coli (EC) in Davis minimal media under Anaerobic conditions(in vitro)
# Type: functional
measurementKind: MIC (µg/mL)
Value expressed in µg/mL; do not type the unit.

Fill blank: measured MIC of the compound `[O-]c1n[n+]([C@@H]2O[C@H](CO)[C@@H](O)[C@H]2O)ccc1Cl` is ____. 0.2

Similarly, `N#Cc1cc[n+]([C@@H]2O[C@H](CO)[C@@H](O)[C@H]2O)nc1[O-]` ? 3.1

Similarly, `N.[O-]c1n[n+]([C@@H]2O[C@H](CO)[C@@H](O)[C@H]2O)ccc1S` ? 100

Similarly, `COc1cc[n+]([C@@H]2O[C@H](CO)[C@@H](O)[C@H]2O)nc1[O-]` ? 100

Similarly, `Nc1cc[n+]([C@@H]2O[C@H](CO)[C@@H](O)[C@H]2O)nc1[O-]` ? 100

Similarly, `CC(=O)OC[C@H]1O[C@@H]([n+]2ccc(Cl)c([O-])n2)[C@H](O)[C@@H]1O` ? 25
